# Test system: NCI-H847 (Small Cell Lung Carcinoma)
# ASSAY REMARKS: Bliss excess, mean over the matrix (fraction); higher = more synergy
Classify as follows. Reported Bliss excess greater than or equal to 0.06: 1.0. Reported Bliss excess below: 0.0.

compound="Cc1cc2ncnn2cc1Nc1ncc2c(n1)n(C1CCOCC1)c(=O)n2C [AZD7648] + C[C@@H]1COCCN1C2=NC(=NC(=C2)C3(CC3)[S@](=N)(=O)C)C4=C5C=CNC5=NC=C4 [AZD6738] (first compound max 10 µM, 7x7, partner max 10 µM)" study_system="NCI-H847 (Small Cell Lung Carcinoma)" group_label=0.0
compound="C=CCn1c(=O)c2cnc(Nc3ccc(N4CCN(C)CC4)cc3)nc2n1-c1cccc(C(C)(C)O)n1 [AZD1775] + C1CN(CCC1(C(=O)N[C@@H](CCO)C2=CC=C(C=C2)Cl)N)C3=NC=NC4=C3C=CN4 [Capivasertib] (first compound max 3 µM, partner max 3 µM)" study_system="NCI-H847 (Small Cell Lung Carcinoma)" group_label=0.0
compound="Cc1c2c(nn1C)CSCc1cc(n(C)n1)CSc1cc(c3ccccc3c1)OCCCc1c(C(=O)O)n(C)c3c-2c(Cl)ccc13 [AZD5991] + C[C@@H](Nc1cc(F)cc(F)c1)c1cc(C(=O)N(C)C)cc2c(=O)cc(N3CCOCC3)oc12 [AZD8186] (first compound max 1 µM, 7x7, partner max 3 µM)" study_system="NCI-H847 (Small Cell Lung Carcinoma)" group_label=1.0
compound="CC1(C)CCC(CN2CCN(c3ccc(C(=O)NS(=O)(=O)c4ccc(NCC5CCOCC5)c([N+](=O)[O-])c4)c(Oc4cnc5[nH]ccc5c4)c3)CC2)=C(c2ccc(Cl)cc2)C1 [Venetoclax] + C[C@@H](Nc1cc(F)cc(F)c1)c1cc(C(=O)N(C)C)cc2c(=O)cc(N3CCOCC3)oc12 [AZD8186] (first compound max 1 µM, 7x7, partner max 3 µM)" study_system="NCI-H847 (Small Cell Lung Carcinoma)" group_label=1.0
compound="COc1cccc(OCCCN)c1-c1cc(Nc2cnc(C#N)cn2)n[nH]1 [Prexasertib] + CN(C)CCCOc1ccc(-c2ccc3ncc4c(c3c2)n(C2CCOCC2)c(=O)n4C)cn1 [AZD0156] (first compound max 1 µM, 7x7, partner max 1 µM)" study_system="NCI-H847 (Small Cell Lung Carcinoma)" group_label=0.0
compound="COc1cccc2c1C(=O)c1c(O)c3c(c(O)c1C2=O)C[C@@](O)(C(=O)CO)C[C@@H]3O[C@H]1C[C@H](N)[C@H](O)[C@H](C)O1 [Doxorubicin] + Cc1cc2ncnn2cc1Nc1ncc2c(n1)n(C1CCOCC1)c(=O)n2C [AZD7648] (first compound max 1 µM, 7x7, partner max 10 µM)" study_system="NCI-H847 (Small Cell Lung Carcinoma)" group_label=1.0

###

# Test system: P12-ICHIKAWA (T-Lymphoblastic Leukemia)
# ASSAY REMARKS: combination Emax (second highest fraction inhibited in the dose matrix, 72 h); higher = more inhibition; extreme values may be limits of the assay
REPORTED ENDPOINT: combination Emax

compound="C=CCn1c(=O)c2cnc(Nc3ccc(N4CCN(C)CC4)cc3)nc2n1-c1cccc(C(C)(C)O)n1 [AZD1775] + C1CN(CCC1(C(=O)N[C@@H](CCO)C2=CC=C(C=C2)Cl)N)C3=NC=NC4=C3C=CN4 [Capivasertib] (first compound max 3 µM, partner max 3 µM)" value_observed=1
compound="CN(CCO)CC[C@H](CSc1ccccc1)Nc1ccc(S(=O)(=O)NC(=O)c2ccc(N3CCC([C@@H](O)c4ccccc4-c4ccc(Cl)cc4)CC3)cc2)cc1S(=O)(=O)C(F)(F)F [AZD4320] + C[C@@H](Nc1cc(F)cc(F)c1)c1cc(C(=O)N(C)C)cc2c(=O)cc(N3CCOCC3)oc12 [AZD8186] (first compound max 1 µM, 7x7, partner max 3 µM)" value_observed=1
compound="NC1(C(=O)N[C@@H](CCO)c2ccc(Cl)cc2)CCN(c2ncnc3[nH]ccc23)CC1 [Capivasertib] + Cn1cnc2c(F)c(Nc3ccc(Br)cc3Cl)c(C(=O)NOCCO)cc21 [Selumetinib] (first compound max 10 µM, 7x7, partner max 10 µM)" value_observed=0.748
compound="Cc1c2c(nn1C)CSCc1cc(n(C)n1)CSc1cc(c3ccccc3c1)OCCCc1c(C(=O)O)n(C)c3c-2c(Cl)ccc13 [AZD5991] + CN(C)CCCOc1ccc(-c2ccc3ncc4c(c3c2)n(C2CCOCC2)c(=O)n4C)cn1 [AZD0156] (first compound max 1 µM, 7x7, partner max 1 µM)" value_observed=0.994
compound="CC(=O)Nc1cccc(-n2c(=O)n(C3CC3)c(=O)c3c(Nc4ccc(I)cc4F)n(C)c(=O)c(C)c32)c1 [Trametinib] + Cc1nc(-c2cn3c(n2)-c2ccc(-c4cnn(C(C)(C)C(N)=O)c4)cc2OCC3)n(C(C)C)n1 [Taselisib] (first compound max 1 µM, 7x7, partner max 10 µM)" value_observed=0.658

###

Property: Bliss excess; scope: individual compounds
# System: TE-6 (Esophageal Squamous Cell Carcinoma)
# ASSAY REMARKS: Bliss excess, mean over the matrix (fraction); higher = more synergy
REPORTED ENDPOINT: Bliss excess

compound="CC(=O)Nc1cccc(-n2c(=O)n(C3CC3)c(=O)c3c(Nc4ccc(I)cc4F)n(C)c(=O)c(C)c32)c1 [Trametinib] + Cc1nc(-c2cn3c(n2)-c2ccc(-c4cnn(C(C)(C)C(N)=O)c4)cc2OCC3)n(C(C)C)n1 [Taselisib] (first compound max 1 µM, 7x7, partner max 10 µM)" value_observed=0.0911
compound="CN(CCO)CC[C@H](CSc1ccccc1)Nc1ccc(S(=O)(=O)NC(=O)c2ccc(N3CCC([C@@H](O)c4ccccc4-c4ccc(Cl)cc4)CC3)cc2)cc1S(=O)(=O)C(F)(F)F [AZD4320] + C1CN(CCC1(C(=O)N[C@@H](CCO)C2=CC=C(C=C2)Cl)N)C3=NC=NC4=C3C=CN4 [Capivasertib] (first compound max 1 µM, 7x7, partner max 3 µM)" value_observed=0.0377
compound="COc1nnc2ccc(N3CCC(c4ccc(OCCN5CCN(C)C(=O)[C@H]5C)cc4)CC3)nn12 [AZD5153] + Cc1c2c(nn1C)CSCc1cc(n(C)n1)CSc1cc(c3ccccc3c1)OCCCc1c(C(=O)O)n(C)c3c-2c(Cl)ccc13 [AZD5991] (first compound max 1 µM, 7x7, partner max 1 µM)" value_observed=-0.0701

###

# Tested on: HDQ-P1 (Breast Carcinoma)
# ASSAY REMARKS: combination Emax (second highest fraction inhibited in the dose matrix, 72 h); higher = more inhibition; extreme values may be limits of the assay
Binary classification by combination Emax, with 0.2 as an inclusive lower bound for Criterion met; all other cases are Criterion not met.

molecule="CC1(C)CCC(CN2CCN(c3ccc(C(=O)NS(=O)(=O)c4ccc(NCC5CCOCC5)c([N+](=O)[O-])c4)c(Oc4cnc5[nH]ccc5c4)c3)CC2)=C(c2ccc(Cl)cc2)C1 [Venetoclax] + Cn1cnc2c(F)c(Nc3ccc(Br)cc3Cl)c(C(=O)NOCCO)cc21 [Selumetinib] (first compound max 1 µM, 7x7, partner max 3 µM)" group_label="Criterion not met"
molecule="COc1cc2ncnc(Nc3ccc(F)c(Cl)c3)c2cc1OCCCN1CCOCC1 [Gefitinib] + CC(C)n1c(=O)n(C)c2cnc3cc(F)c(-c4ccc(OCCCN5CCCCC5)nc4)cc3c21 [AZD1390] (first compound max 10 µM, 7x7, partner max 0.3 µM)" group_label="Criterion met"
molecule="Cc1c2c(nn1C)CSCc1cc(n(C)n1)CSc1cc(c3ccccc3c1)OCCCc1c(C(=O)O)n(C)c3c-2c(Cl)ccc13 [AZD5991] + C[C@@H](Nc1cc(F)cc(F)c1)c1cc(C(=O)N(C)C)cc2c(=O)cc(N3CCOCC3)oc12 [AZD8186] (first compound max 1 µM, 7x7, partner max 3 µM)" group_label="Criterion met"
molecule="COc1nnc2ccc(N3CCC(c4ccc(OCCN5CCN(C)C(=O)[C@H]5C)cc4)CC3)nn12 [AZD5153] + CCN(CCO)CCCOc1ccc2c(Nc3cc(CC(=O)Nc4cccc(F)c4)[nH]n3)ncnc2c1 [AZD2811] (first compound max 1 µM, 7x7, partner max 1 µM)" group_label="Criterion met"
molecule="Cc1cc2ncnn2cc1Nc1ncc2c(n1)n(C1CCOCC1)c(=O)n2C [AZD7648] + C=CCn1c(=O)c2cnc(Nc3ccc(N4CCN(C)CC4)cc3)nc2n1-c1cccc(C(C)(C)O)n1 [AZD1775] (first compound max 10 µM, partner max 1 µM)" group_label="Criterion met"

###

# System: NCI-H2818 (Mesothelioma)
# ASSAY REMARKS: Bliss excess, mean over the matrix (fraction); higher = more synergy
Use -0.01 as the dividing line for Bliss excess, with the line itself on the Y side and lower values as N.

compound="C[C@@H](c1ccc2nccn2c1)n1nnc2ncc(-c3cnn(C)c3)nc21 [Savolitinib] + CC1(C)CCC(CN2CCN(c3ccc(C(=O)NS(=O)(=O)c4ccc(NCC5CCOCC5)c([N+](=O)[O-])c4)c(Oc4cnc5[nH]ccc5c4)c3)CC2)=C(c2ccc(Cl)cc2)C1 [Venetoclax] (first compound max 1 µM, 7x7, partner max 1 µM)" group_label=N
compound="Cc1c2c(nn1C)CSCc1cc(n(C)n1)CSc1cc(c3ccccc3c1)OCCCc1c(C(=O)O)n(C)c3c-2c(Cl)ccc13 [AZD5991] + CCN(CCO)CCCOc1ccc2c(Nc3cc(CC(=O)Nc4cccc(F)c4)[nH]n3)ncnc2c1 [AZD2811] (first compound max 1 µM, 7x7, partner max 1 µM)" group_label=N
compound="CC(=O)c1c(C)c2cnc(Nc3ccc(N4CCNCC4)cn3)nc2n(C2CCCC2)c1=O [Palbociclib] + Cn1cnc2c(F)c(Nc3ccc(Br)cc3Cl)c(C(=O)NOCCO)cc21 [Selumetinib] (first compound max 10 µM, 7x7, partner max 10 µM)" group_label=Y
compound="C[C@@H](Nc1cc(F)cc(F)c1)c1cc(C(=O)N(C)C)cc2c(=O)cc(N3CCOCC3)oc12 [AZD8186] + C1CN(CCC1(C(=O)N[C@@H](CCO)C2=CC=C(C=C2)Cl)N)C3=NC=NC4=C3C=CN4 [AZD5363] (first compound max 10 µM, 7x7, partner max 10 µM)" group_label=N
compound="N#Cc1cnc(Nc2cc(NC[C@H]3CNCCO3)c(C(F)(F)F)cn2)cn1 [SRA737] + O=c1[nH]cc(F)c(=O)[nH]1 [5-Fluorouracil] (first compound max 10 µM, 7x7, partner max 20 µM)" group_label=N
compound="CN(C)CCCOc1ccc(-c2ccc3ncc4c(c3c2)n(C2CCOCC2)c(=O)n4C)cn1 [AZD0156] + O=C(c1cc(Cc2n[nH]c(=O)c3ccccc23)ccc1F)N1CCN(C(=O)C2CC2)CC1 [Olaparib] (first compound max 3 µM, partner max 3 µM)" group_label=N
compound="O=C(c1cc(Cc2n[nH]c(=O)c3ccccc23)ccc1F)N1CCN(C(=O)C2CC2)CC1 [Olaparib] + CC1(C)CCC(CN2CCN(c3ccc(C(=O)NS(=O)(=O)c4ccc(NCC5CCOCC5)c([N+](=O)[O-])c4)c(Oc4cnc5[nH]ccc5c4)c3)CC2)=C(c2ccc(Cl)cc2)C1 [Venetoclax] (first compound max 10 µM, 7x7, partner max 1 µM)" group_label=N
compound="NC1(C(=O)N[C@@H](CCO)c2ccc(Cl)cc2)CCN(c2ncnc3[nH]ccc23)CC1 [Capivasertib] + Cn1cnc2c(F)c(Nc3ccc(Br)cc3Cl)c(C(=O)NOCCO)cc21 [Selumetinib] (first compound max 10 µM, 7x7, partner max 10 µM)" group_label=Y
